Reference source: PubChem BioAssay

Let's look at some molecules and their measured nuclear beta-catenin stimulation.
# assay-remarks: Wnt pathway potentiators raising nuclear beta-catenin – imaging, WNT3A-conditioned medium, mouse C2C12, NPC library, primary screen (AID 1117326)
# setup-conditions: at 10 µM, stronger effect = higher value
Use % as the unit, but write only the number.

molecule: Nc1cc(-c2ccncc2)c[nH]c1=O
nuclear beta-catenin stimulation (%): 0.5

Entry under review: Nc1ccc(C(=O)Oc2ccccc2)c(O)c1 . Reported nuclear beta-catenin stimulation?
0.2

Could you share which nuclear beta-catenin stimulation value was measured for Cc1c(NC(C)C)c(=O)n(-c2ccccc2)n1C ?
3.6

So what's the measured nuclear beta-catenin stimulation for this one? CO[C@H]1C=CO[C@@]2(C)Oc3c(C)c(O)c4c(O)c(c(/C=N/N5CCN(C)CC5)c(O)c4c3C2=O)NC(=O)/C(C)=C\C=C[C@H](C)[C@H](O)[C@@H](C)[C@@H](O)[C@@H](C)[C@H](OC(C)=O)[C@@H]1C
0.6

What value of measured nuclear beta-catenin stimulation is listed for Cc1nc2n(c(=O)c1CCN1CCC(c3noc4cc(F)ccc34)CC1)CCCC2 ?
4.2

I would be grateful if you could share the reported nuclear beta-catenin stimulation for C[C@H]1c2cccc(O)c2C(O)=C2C(=O)[C@]3(O)C(O)=C(C(N)=O)C(=O)[C@@H](N(C)C)[C@@H]3[C@@H](O)[C@@H]21 .
-0.3

What value of nuclear beta-catenin stimulation has been reported for the following molecule? CC(C)NCC(O)c1ccc2ccccc2c1 (stereo unspecified)
0.7

Using the record for COCCCC/C(=N\OCCN)c1ccc(C(F)(F)F)cc1 , report its nuclear beta-catenin stimulation.
0.8

Please look up its nuclear beta-catenin stimulation: CCN(CC)CC1CCCCN1CC(=O)N1c2ccccc2C(=O)Nc2cccnc21 (stereo unspecified)
6.3

Name the reported nuclear beta-catenin stimulation value associated with the molecule CN(C/C=C/C#CC(C)(C)C)Cc1cccc2ccccc12
5.3

Please look up its nuclear beta-catenin stimulation: NC(=O)c1ncn([C@@H]2O[C@H](CO)[C@@H](O)[C@H]2O)c1O
3

// nuclear beta-catenin stimulation lookup, key: C[C@H]1COc2c(C3(N)CC3)c(F)cc3c(=O)c(C(=O)O)cn1c23
1.2

Item under review: CCCCOc1ccc(CC(=O)NO)cc1 . Reported nuclear beta-catenin stimulation?
0

// lookup nuclear beta-catenin stimulation for CN(C)c1ccc2nc3ccc(=[N+](C)C)cc-3sc2c1
3.1

Entry CC(=O)Oc1c(C)c(C)c2c(c1C)CC[C@@](C)(CCC[C@H](C)CCC[C@H](C)CCCC(C)C)O2 : reported nuclear beta-catenin stimulation = ?
1.7

Any idea what its nuclear beta-catenin stimulation is? The molecule is NC(N)=Nc1nc(CSCC/C(N)=N/S(N)(=O)=O)cs1
0.9

# input molecule: CC(=O)OCC(=O)[C@@]1(O)[C@H](C)C[C@H]2[C@@H]3CCC4=CC(=O)C=C[C@]4(C)[C@@]3(F)[C@@H](O)C[C@@]21C ; wanted: its nuclear beta-catenin stimulation
-1.1

###

# assay-remarks: drug combination toxicity in non-malignant astrocytes – cell-based, BGB or cisplatin IC20 combos, cytotoxicity control for chromothriptic childhood tumor combination screen (AID 1671460);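 note: cells exposed to compounds for 96 hours before viability readout; 0% = vehicle and 100% = killing control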
# setup-conditions: Human astrocytes, viability inhibition, drug combinations; measured here: combo with BGB IC20; at 0.5 µM; stronger effect = higher value
quantity-kind: inhibition (%)
# number only, unit % dropped from output

compound: Nc1nc2c(ncn2COC(CO)CO)c(=O)[nH]1
unit-of-measure: %
inhibition: 14.4

compound: O=C(O)CCCCCCCC(=O)O
unit-of-measure: %
inhibition: -13.8

compound: CC(N)C12CC3CC(CC(C3)C1)C2 (stereo not drawn)
unit-of-measure: %
inhibition: -8.28

compound: O=C(O)P(=O)(O)O
unit-of-measure: %
inhibition: 1.18

compound: O=NN(CCCl)C(=O)NCCCl
unit-of-measure: %
inhibition: 26.4

Query (compound): Cc1nc2ccc(CN(C)c3ccc(C(=O)N[C@@H](CCC(=O)O)C(=O)O)s3)cc2c(=O)[nH]1 ; field requested: inhibition
3.56

Fill in the blank: the reported inhibition of CN(C)c1ccc(C(=C2C=CC(=[N+](C)C)C=C2)c2ccc(N(C)C)cc2)cc1 is ____.
65.8

Quick one: inhibition of Nc1[nH]c(=O)ncc1F ?
-11.3
